Experiment: HBEC Part A pharmacokinetics, healthy subjects
Assay type: in vivo, human
Settings: human, in vivo, oral, Day 14, LY 30 mg (N = 9), read-out: tmax, median
Endpoint: Tmax (h)
Please give a number only; it is taken to be in h.

Ask: Consider the compound C[C@H]1c2cccc(CCC(C)(C)O)c2C[C@H](CO)N1C(=O)Cc1c(Cl)cccc1Cl and give its measured Tmax.
Reply: 2

Source: patent US12642794B2
